From: BigSolDB 2.1

- condition-details: in MIBK, 308.15 K
readout-label: solubility (mole fraction)

test-smiles: O=C(O)/C=C/C(=O)O.OCCOCCN1CCN(C2=Nc3ccccc3Sc3ccccc32)CC1.OCCOCCN1CCN(C2=Nc3ccccc3Sc3ccccc32)CC1
result: 0.000328

----------
- condition-details: in MTBE, 303.15 K

test-smiles: O=C(O)/C=C/C(=O)O.OCCOCCN1CCN(C2=Nc3ccccc3Sc3ccccc32)CC1.OCCOCCN1CCN(C2=Nc3ccccc3Sc3ccccc32)CC1
solubility (mole fraction): 0.000107

----------
- condition-details: in n-propanol, 293.15 K

test-smiles: O=C(O)/C=C/C(=O)O.OCCOCCN1CCN(C2=Nc3ccccc3Sc3ccccc32)CC1.OCCOCCN1CCN(C2=Nc3ccccc3Sc3ccccc32)CC1
solubility (mole fraction): 0.000396
